test: In vivo pharmacokinetics in the Sprague Dawley rat; conditions: IV, 3 mg/kg, formulation as in Table 5
measurement-name: Vss (volume of distribution) (L/kg)
Give just the numeric value; L/kg need not be written.

- smiles: "CCn1ncc2cc(-c3cc(=O)n4ncc(-c5nc(C)no5)c4[nH]3)ccc21"
  Vss (volume of distribution) (L/kg): 0.719

Request: Vss (volume of distribution) lookup needed for `COc1cc(-c2cc(=O)n3ncc(-c4ncc(C)o4)c3[nH]2)ccc1Cl` , thanks.
Result: 0.61

Request: What do you have for `COc1cc(-c2cc(=O)n3ncc(-c4ccnn4C)c3[nH]2)ccc1Cl` ?
Result: 0.71

Request: Input `CCn1ncc2cc(-c3cc(=O)n4ncc(-c5ncc(C)o5)c4[nH]3)ccc21`
Result: 0.35

====

molecular target: PASK (UniProt #Q96RG2; human recombinant N-terminal GST tagged construct, residues 879-1323) (Homo sapiens, UniProt Q96RG2); construct: N-terminal GST tagged construct, residues 879-1323; GST (N); assay: PASK ATP Radiochemical Assay; details: 33P-ATP, Myelin Basic Protein substrate, read-out: IC50 Kinase Domain
Sequence (Q96RG2 879-1323, change not shown): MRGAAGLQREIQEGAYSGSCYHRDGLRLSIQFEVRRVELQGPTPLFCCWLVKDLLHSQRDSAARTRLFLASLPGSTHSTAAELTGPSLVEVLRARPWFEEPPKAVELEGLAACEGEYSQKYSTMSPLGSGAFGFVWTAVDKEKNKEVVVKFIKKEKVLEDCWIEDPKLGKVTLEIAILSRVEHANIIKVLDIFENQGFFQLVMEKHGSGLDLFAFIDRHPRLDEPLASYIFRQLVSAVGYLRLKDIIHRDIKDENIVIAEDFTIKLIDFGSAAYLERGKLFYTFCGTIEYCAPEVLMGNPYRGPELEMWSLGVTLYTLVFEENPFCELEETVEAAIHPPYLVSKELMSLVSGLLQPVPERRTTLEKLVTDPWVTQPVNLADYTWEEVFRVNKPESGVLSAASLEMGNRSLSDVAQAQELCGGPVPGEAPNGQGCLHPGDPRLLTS
pIC50: −log10 of the molar value.
measurement-name: pIC50

- smiles: "CCn1nccc1-c1cnn2c(=O)cc(-c3ccc4c(cnn4CC)c3)[nH]c12"
  pIC50: "≥ 5.00"

Request: Could you share which pIC50 value was measured for `Cc1noc(-c2cnn3c(=O)cc(-c4ccc(Cl)c(Cl)c4)[nH]c23)n1` ?
Result: ≥ 5.00

Request: Try `COc1cc(-c2cc(=O)n3ncc(-c4cc(C)n[nH]4)c3[nH]2)ccc1Cl` next.
Result: ≥ 5.00

Request: Now this one: `Cn1ncc2cc(-c3cc(=O)n4ncc(-c5ncco5)c4[nH]3)ccc21`
Result: ≥ 5.00

Request: Continue with `CCn1ncc2cc(-c3cc(=O)n4ncc(-c5oncc5C)c4[nH]3)ccc21`
Result: ≥ 5.00

Request: One more molecule: `CCc1coc(-c2cnn3c(=O)cc(-c4ccc5c(c4)OCO5)[nH]c23)n1`
Result: ≥ 5.00

Request: Same question, `CCn1ncc2cc(-c3cc(=O)n4ncc(-c5ncc(-c6ccccc6)o5)c4[nH]3)ccc21` this time
Result: ≥ 5.00

Request: Here is the next molecule: `CCn1ncc2cc(-c3cc(=O)n4ncc(-c5nc(C)co5)c4[nH]3)ccc21`
Result: ≥ 5.00

Request: Proceed to `CCn1ncc2cc(-c3cc(=O)n4ncc(-c5noc6ccccc56)c4[nH]3)ccc21`
Result: ≥ 5.00

====

test: In vivo pharmacokinetics in the Sprague Dawley rat; details: IV, 3 mg/kg, formulation as in Table 5
measurement-name: t1/2 (half-life) (h)
Write it as a number; the unit h goes unstated.

- molecule: "CCn1ncc2cc(-c3cc(=O)n4ncc(-c5ncc(C)o5)c4[nH]3)ccc21 [Example 12]"
  unit-symbol: "h"
  t1/2 (half-life): 3.75
- molecule: "COc1cc(-c2cc(=O)n3ncc(-c4ccnn4C)c3[nH]2)ccc1Cl [Example 51]"
  unit-symbol: "h"
  t1/2 (half-life): 0.38
- molecule: "CCn1ncc2cc(-c3cc(=O)n4ncc(-c5nc(C)no5)c4[nH]3)ccc21 [Example 43]"
  unit-symbol: "h"
  t1/2 (half-life): 1.62

Request: For the molecule shown here, COc1cc(-c2cc(=O)n3ncc(-c4ncc(C)o4)c3[nH]2)ccc1Cl [Example 17] , give the reported t1/2 (half-life).
Result: 8.3

====

assay: In vivo pharmacokinetics in the Sprague Dawley rat; details: PO, 10 mg/kg, formulation as in Table 5
// reported Tmax (Time to maximum blood concentration after an oral dose) for each item listed
Write the value in min as a bare number.

- smiles: "COc1cc(-c2cc(=O)n3ncc(-c4ncc(C)o4)c3[nH]2)ccc1Cl"
  unit-symbol: "min"
  measured-value: 240
- smiles: "COc1cc(-c2cc(=O)n3ncc(-c4ccnn4C)c3[nH]2)ccc1Cl"
  unit-symbol: "min"
  measured-value: 15
- smiles: "CCn1ncc2cc(-c3cc(=O)n4ncc(-c5ncc(C)o5)c4[nH]3)ccc21"
  unit-symbol: "min"
  measured-value: 30

Below: the item to evaluate.
Request: # Tmax (Time to maximum blood concentration after an oral dose) lookup, item `CCn1ncc2cc(-c3cc(=O)n4ncc(-c5nc(C)no5)c4[nH]3)ccc21`
Result: 30

====

biological target: CK2a2 (NP_001887; human full-length protein, GST tagged) (Homo sapiens, UniProt P19784); construct: human full-length protein, GST tagged; GST; assay: Biochemical Assay for CK2 Activity; conditions: 33P-ATP radiochemical assay, CK2 sub [RRRDDDSDDD]
Sequence (P19784 whole entry): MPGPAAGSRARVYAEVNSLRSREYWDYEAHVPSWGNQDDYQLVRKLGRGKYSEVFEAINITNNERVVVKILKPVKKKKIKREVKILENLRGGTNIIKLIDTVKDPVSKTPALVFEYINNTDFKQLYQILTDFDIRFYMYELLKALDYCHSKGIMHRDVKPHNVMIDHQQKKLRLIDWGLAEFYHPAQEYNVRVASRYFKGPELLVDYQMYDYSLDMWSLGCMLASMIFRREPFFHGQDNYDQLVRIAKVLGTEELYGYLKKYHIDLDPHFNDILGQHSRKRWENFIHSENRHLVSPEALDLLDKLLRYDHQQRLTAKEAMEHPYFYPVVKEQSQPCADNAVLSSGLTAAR
measurement-name: IC50

- molecule: "CCOc1cc(-c2cc(=O)n3ncc(-c4nc(C)co4)c3[nH]2)ccc1Cl [Example 21]"
  subject-of-test: "CK2a2 (NP_001887; human full-length protein, GST tagged) (Homo sapiens, UniProt P19784)"
  IC50: "> 10 µM"
- molecule: "CCc1coc(-c2cnn3c(=O)cc(-c4ccc5c(c4)OCO5)[nH]c23)n1 [Example 16]"
  subject-of-test: "CK2a2 (NP_001887; human full-length protein, GST tagged) (Homo sapiens, UniProt P19784)"
  IC50: "≤ 10 µM"

Switching to the query record.
Request: Give the measured IC50 of COc1cc(-c2cc(=O)n3ncc(-c4ccn(C)n4)c3[nH]2)ccc1Cl [Example 54] .
Result: ≤ 10 µM

====

target: PASK (Invitrogen) (Homo sapiens, UniProt Q96RG2)
Sequence (Q96RG2 999-1251 limits assumed): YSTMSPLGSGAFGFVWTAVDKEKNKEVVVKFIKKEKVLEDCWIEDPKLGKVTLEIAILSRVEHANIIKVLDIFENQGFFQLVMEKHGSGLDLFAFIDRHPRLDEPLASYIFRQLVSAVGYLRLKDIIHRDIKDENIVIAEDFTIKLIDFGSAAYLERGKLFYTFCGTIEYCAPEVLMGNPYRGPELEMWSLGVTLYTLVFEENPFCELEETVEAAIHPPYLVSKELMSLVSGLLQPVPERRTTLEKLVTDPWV
measurement-name: IC50

Solved entries:
- smiles: "COc1cc(-c2cc(=O)n3ncc(-c4ccn(C)n4)c3[nH]2)ccc1Cl"
  IC50: "≤ 10 µM"
- smiles: "COc1nn2c(=O)cc(-c3ccc(Cl)cc3)[nH]c2c1-c1nc(C)no1"
  IC50: "≤ 10 µM"

Request: So what's the measured IC50 for this one? `COc1cc(-c2cc(=O)n3ncc(-c4ncc(C)o4)c3[nH]2)ccc1Cl`
Result: ≤ 10 µM

Request: Also, `CCc1nn2c(=O)cc(-c3ccc(Cl)c(OC)c3)[nH]c2c1-c1nc(C)no1` please.
Result: ≤ 10 µM

Request: Same question, `Cn1ccc(-c2cnn3c(=O)cc(-c4ccc(Cl)c(OCC(F)(F)F)c4)[nH]c23)n1` this time
Result: ≤ 10 µM

====

Assay: In vivo pharmacokinetics in the Sprague Dawley rat
Details: PO, 10 mg/kg, formulation as in Table 5
Procedure: Pharmacokinetics of a PASK Inhibitor The in vivo pharmacokinetics of Examples 12, 17, 43, and 51 were evaluated in the Sprague Dawley rat. Blood samples were collected at 0.083, 0.25, 0.5, 1, 2, 4, 6, 8, and 24 hours and the samples were analyzed for test compounds content using LC/MS/MS. The data was submitted to pharmacokinetic analysis using WinNonLin software and the observed and calculated pharmacokinetic parameters are shown in Table 5 for each compound.
Quick reference: t1/2 (half-life) of the listed items.
Note: unit h is implicit; provide only the numeric part.

Record excerpt, results attached:
- molecule: "COc1cc(-c2cc(=O)n3ncc(-c4ccnn4C)c3[nH]2)ccc1Cl [Example 51]"
  t1/2 (half-life) [h]: 2.62
- molecule: "CCn1ncc2cc(-c3cc(=O)n4ncc(-c5nc(C)no5)c4[nH]3)ccc21 [Example 43]"
  t1/2 (half-life) [h]: 3.35
- molecule: "COc1cc(-c2cc(=O)n3ncc(-c4ncc(C)o4)c3[nH]2)ccc1Cl [Example 17]"
  t1/2 (half-life) [h]: 2.12

In the following, a different molecule is considered.
Request: Suppose we examine the molecule CCn1ncc2cc(-c3cc(=O)n4ncc(-c5ncc(C)o5)c4[nH]3)ccc21 [Example 12] ; what t1/2 (half-life) value has been reported?
Result: 2.38

====

assay: In vivo pharmacokinetics in the Sprague Dawley rat; conditions: IV, 3 mg/kg, formulation as in Table 5
measurement-name: Cl (clearance) (mL/min/kg)
The answer is to be given in mL/min/kg; state only the numeric part.

Below: 2 compounds and their reported Cl (clearance).
- smiles: "CCn1ncc2cc(-c3cc(=O)n4ncc(-c5nc(C)no5)c4[nH]3)ccc21"
  Cl (clearance), mL/min/kg: 23.9
- smiles: "COc1cc(-c2cc(=O)n3ncc(-c4ncc(C)o4)c3[nH]2)ccc1Cl"
  Cl (clearance), mL/min/kg: 6.19

Request: Requested read-out: Cl (clearance). Entry: `COc1cc(-c2cc(=O)n3ncc(-c4ccnn4C)c3[nH]2)ccc1Cl`
Result: 62

Request: Now this one: `CCn1ncc2cc(-c3cc(=O)n4ncc(-c5ncc(C)o5)c4[nH]3)ccc21`
Result: 8.76

====

Below is a list of entries, each paired with its recorded F (oral bioavailability) value.
assay: In vivo pharmacokinetics in the Sprague Dawley rat; conditions: PO, 10 mg/kg, formulation as in Table 5
Your answer should be a plain number; it is taken to be in %.

Examples with answers:
- smiles: "CCn1ncc2cc(-c3cc(=O)n4ncc(-c5ncc(C)o5)c4[nH]3)ccc21"
  unit-symbol: "%"
  F (oral bioavailability): 46.5
- smiles: "COc1cc(-c2cc(=O)n3ncc(-c4ncc(C)o4)c3[nH]2)ccc1Cl"
  unit-symbol: "%"
  F (oral bioavailability): 42
- smiles: "CCn1ncc2cc(-c3cc(=O)n4ncc(-c5nc(C)no5)c4[nH]3)ccc21"
  unit-symbol: "%"
  F (oral bioavailability): 44.7

Request: Quick one: F (oral bioavailability) of `COc1cc(-c2cc(=O)n3ncc(-c4ccnn4C)c3[nH]2)ccc1Cl` ?
Result: 1.17
